study.target: 12-Lipoxygenase (Rattus norvegicus)
Construct: from tissue; host or cells: Wistar rat platelets (PRP mixed with PPP, from citrated aortic blood)
Sequence (F1LQ70 whole entry): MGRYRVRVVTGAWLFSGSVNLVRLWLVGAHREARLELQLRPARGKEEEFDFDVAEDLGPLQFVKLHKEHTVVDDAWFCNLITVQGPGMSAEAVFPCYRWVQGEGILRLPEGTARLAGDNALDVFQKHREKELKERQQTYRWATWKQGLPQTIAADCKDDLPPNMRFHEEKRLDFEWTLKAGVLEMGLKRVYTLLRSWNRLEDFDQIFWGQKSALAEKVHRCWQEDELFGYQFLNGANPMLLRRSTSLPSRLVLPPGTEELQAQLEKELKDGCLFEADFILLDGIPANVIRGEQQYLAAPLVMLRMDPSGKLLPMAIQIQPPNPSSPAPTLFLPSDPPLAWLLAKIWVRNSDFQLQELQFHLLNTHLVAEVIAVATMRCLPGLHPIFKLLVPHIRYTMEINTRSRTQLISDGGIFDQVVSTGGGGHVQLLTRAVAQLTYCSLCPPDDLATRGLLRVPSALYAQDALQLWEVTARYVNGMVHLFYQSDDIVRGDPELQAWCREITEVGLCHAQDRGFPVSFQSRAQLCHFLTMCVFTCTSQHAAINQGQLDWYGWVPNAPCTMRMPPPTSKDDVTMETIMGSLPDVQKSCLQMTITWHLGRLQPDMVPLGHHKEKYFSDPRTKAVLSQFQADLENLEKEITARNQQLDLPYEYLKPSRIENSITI
procedure.details: 12-Lipoxygenase inhibitory action: 12-HETE production in Wistar rat platelets (HPLC)
Type: cell-based
condition.label: 10^-4 M, read-out: 12-Lipoxygenase Inhibitory Action, % Inhibition (IE)
Procedure: Through the descending aorta of a Wistar rat, 10 ml of blood was collected, under anesthesia, together with citric acid of a volume corresponding to 10%. PRP and PPP were respectively prepared, then they were mixed to make the number of platelets to be 10^9 /ml. […] 100 μl of this mixture solution was subjected to high performance liquid chromatography to quantitatively determine 12-HETE. […]
property.name: inhibition at 100 µM (%)

compound="CCCCCCC/C=C\\C1(C)Cc2c(C)c(O)c(C)c(C)c2O1 (centres unmarked) [Compound 38]" unit_abbrev=% result_value=99
compound="Cc1ccc(/C=C\\C2(C)Cc3c(C)c(O)c(C)c(C)c3O2)cc1 (centres unmarked) [Compound 33]" unit_abbrev=% result_value=100
compound="CCCCCCCCCCCCCC1(C)Cc2c(C)c(O)c(C)c(C)c2O1 (centres unmarked) [Compound 41]" unit_abbrev=% result_value=99
compound="COc1ccc(CCC2(C)Cc3c(C)c(O)c(C)c(C)c3O2)cc1 (centres unmarked) [Compound 26]" unit_abbrev=% result_value=100
compound="COc1cccc(/C=C\\C2(C)Cc3c(C)c(O)c(C)c(C)c3O2)c1 (centres unmarked) [Compound 27]" unit_abbrev=% result_value=100
compound="CCCCCCCCCC1(C)Cc2c(C)c(O)c(C)c(C)c2O1 (centres unmarked) [Compound 39]" unit_abbrev=% result_value=100
compound="Cc1c(C)c2c(c(C)c1O)CC(C)(/C=C\\CCc1ccccc1)O2 (centres unmarked) [Compound 21]" unit_abbrev=% result_value=100
compound="Cc1c(C)c2c(c(C)c1O)CC(C)(/C=C\\c1ccc(F)cc1)O2 (centres unmarked) [Compound 30]" unit_abbrev=% result_value=100
compound="Cc1c(C)c2c(c(C)c1O)CC(C)(/C=C/c1ccccc1)O2 (centres unmarked) [Compound 18]" unit_abbrev=% result_value=100
compound="Cc1c(C)c2c(c(C)c1O)CC(C)(/C=C/Cc1ccccc1)O2 (centres unmarked) [Compound 17]" unit_abbrev=% result_value=100
compound="CCCCCCCCCCC/C=C\\C1(C)Cc2c(C)c(O)c(C)c(C)c2O1 (centres unmarked) [Compound 40]" unit_abbrev=% result_value=99
compound="CCCCCC1(C)Cc2c(C)c(O)c(C)c(C)c2O1 (centres unmarked) [Compound 37]" unit_abbrev=% result_value=100
compound="Cc1ccc(CCC2(C)Cc3c(C)c(O)c(C)c(C)c3O2)cc1 (centres unmarked) [Compound 35]" unit_abbrev=% result_value=99
compound="Cc1c(C)c2c(c(C)c1O)CC(C)(CCc1ccc(F)cc1)O2 (centres unmarked) [Compound 32]" unit_abbrev=% result_value=99
compound="COc1cccc(CCC2(C)Cc3c(C)c(O)c(C)c(C)c3O2)c1 (centres unmarked) [Compound 29]" unit_abbrev=% result_value=100
compound="Cc1c(C)c2c(c(C)c1O)CC(C)(CCCCc1ccccc1)O2 (centres unmarked) [Compound 23]" unit_abbrev=% result_value=100
compound="Cc1c(C)c2c(c(C)c1O)CC(C)(C=Cc1ccccc1)O2 (centres unmarked) [Compound 10]" unit_abbrev=% result_value=96
compound="Cc1c(C)c2c(c(C)c1O)CC(C)(CCc1ccccc1)O2 (centres unmarked) [Compound 12]" unit_abbrev=% result_value=95
compound="Cc1c(C)c2c(c(C)c1O)CC(C)(CBr)O2 (centres unmarked) [Compound 6]" unit_abbrev=% result_value=98
compound="Cc1c(C)c2c(c(C)c1O)CC(C)(CC#N)O2 (centres unmarked) [Compound 5]" unit_abbrev=% result_value=97
